I'd be grateful if you could share measured polymerase ribozyme fitness (log ratio) for these entries.
B1: TPR 5TU (parent)
chain: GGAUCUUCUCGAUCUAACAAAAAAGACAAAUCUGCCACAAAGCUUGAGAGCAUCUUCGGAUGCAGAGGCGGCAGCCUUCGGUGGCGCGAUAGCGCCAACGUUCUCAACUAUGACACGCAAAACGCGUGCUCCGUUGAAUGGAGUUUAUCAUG

Variants of: B1
Assay: polymerase ribozyme fitness, log enrichment relative to wild type (log ratio); higher = more active; in vitro selection for triplet polymerase activity
Variants at the floor of the assay were thinned out.

Indicate its recorded polymerase ribozyme fitness (log ratio); the variant in question is G58C C79G A107U U134A U139C
≤ -4.2

Give polymerase ribozyme fitness (log ratio) for A12C A40G A41U A52C C54U A66G C95U
≤ -4.2

Let me know recorded polymerase ribozyme fitness (log ratio) for A41C U45G U53A G83C A91U C93U A115G U144A , thanks.
≤ -4.2

Give me measured polymerase ribozyme fitness (log ratio), please, for this variant: A28G U55A
-2.49

Supply recorded polymerase ribozyme fitness (log ratio) for A30G G80A here.
-3.66

Supply reported polymerase ribozyme fitness (log ratio) belonging to this variant: C38U C87U C95U U144A
-1.21

Please report the measured polymerase ribozyme fitness (log ratio) for U7G G11C U33C A64U C96A A122G G124A G140U
≤ -4.2

Read the entry C63G U90A C99G U148A and write its reported polymerase ribozyme fitness (log ratio).
≤ -4.2

Provide one value: measured polymerase ribozyme fitness (log ratio) of A73U G133U A147C
≤ -4.2

In one line, give reported polymerase ribozyme fitness (log ratio) of the entry A20C C76A A119U .
-1

Give the measured polymerase ribozyme fitness (log ratio) for U55A U144G
0.364

Look up and report measured polymerase ribozyme fitness (log ratio) for this entry: U4C A17C G42A G50C U53A G62A U90G A120U
≤ -4.2

Please report polymerase ribozyme fitness (log ratio) for the following variant: A89U U102G A122C
-3.7

// Input: G34A G48C G59A U102G C114A G143U A147G . Output its polymerase ribozyme fitness (log ratio) only.
≤ -4.2

Please list polymerase ribozyme fitness (log ratio) recorded for the variant A24U A28C U33A G59A G140U U144G U146G
≤ -4.2

In one line, give reported polymerase ribozyme fitness (log ratio) of the entry A22G G42C A52C G58A G68U C87G A142C .
≤ -4.2
